These measurements were taken from ChEMBL document CHEMBL4513216.

# System: Plasmodium berghei
# PROTOCOL DETAILS: Screen against P. berghei liver stage (PbLuc), transformed with Luciferase, at 10uM
# Type: functional, HepG2
# EXPERIMENTAL SETUP: tested at 10 uM
Among all 69,000 compounds or so, about 8,600 (12%) showed an effect of 50% or more. The full list was thinned out, with strong results kept by preference.
Decide using INHIBITION: a value greater than or equal to 20% is class 1, a smaller one is class 0.

MOLECULE	TEST SYSTEM	LABEL
CC(C)CNC(=O)C1(Cc2ccccc2-c2ccccc2)CCNC1 (centres undefined)	Plasmodium berghei	class 1
CN(C)CCN(Cc1cccc(F)c1)C(=O)c1ccn(C)c(=O)c1	Plasmodium berghei	class 1
CN1C(=O)CC(c2cnn(C)c2)C12CCN(C(=O)c1cscn1)CC2 (centres undefined)	Plasmodium berghei	class 1
CCC(=O)N1CCC2(C=C(C(=O)N3CCCC3)c3ccccc32)CC1	Plasmodium berghei	class 1
CC(C)(C)OC(=O)N1CCCN1C(=O)c1cccc(F)c1F	Plasmodium berghei	class 1
CC(C1CCN(Cc2cnc(-c3cccs3)nc2)CC1)N(C)C (centres undefined)	Plasmodium berghei	class 0
O=C(CN1CCOC(Cn2cncn2)C1)NCc1cccs1 (centres undefined)	Plasmodium berghei	class 1
CCN1CCC2(C=C(C(=O)N(C)C)c3ccccc32)CC1	Plasmodium berghei	class 1
OC1CCN(C2CCN(Cc3cnc(-c4cccs4)nc3)CC2)CC1	Plasmodium berghei	class 1
CC(=O)N1CCC2(C=C(C(=O)NC3CC3)c3ccccc32)CC1	Plasmodium berghei	class 0
C=C(C)COc1ccccc1C(=O)N1CCC(C(=O)NCC)C1 (centres undefined)	Plasmodium berghei	class 1
O=C(NCc1ccc(Br)c(F)c1)Nc1cn[nH]c1	Plasmodium berghei	class 0
CCC(=O)N1CCC2(C=C(C(=O)N(C)C)c3ccccc32)CC1	Plasmodium berghei	class 1
CC(C)N1CCC2(C=C(C(=O)N(C)C)c3ccccc32)CC1	Plasmodium berghei	class 0
CS(=O)(=O)c1ccc(CNC(=O)Nc2cn[nH]c2)cc1	Plasmodium berghei	class 0
CC(=O)N1CCSCC1c1ccc(C)o1 (centres undefined)	Plasmodium berghei	class 0
COCCNc1ccc(CNC(=O)Nc2cn[nH]c2)cc1	Plasmodium berghei	class 0
CC(C)(C)OC(=O)N1CCCN1C(=O)c1cccc2cc[nH]c12	Plasmodium berghei	class 1
CCCn1cc(C(=O)NCCC(=O)NC2CCCCC2)c(C)n1	Plasmodium berghei	class 0
CN1C(=O)CC(c2cnn(C)c2)C12CCN(C(=O)c1ccco1)CC2 (centres undefined)	Plasmodium berghei	class 0
CN1C(=O)CC(c2cnn(C)c2)C12CCN(C(=O)c1ccncc1)CC2 (centres undefined)	Plasmodium berghei	class 1
CN1C(=O)CC(c2cnn(C)c2)C12CCN(C(=O)c1ccno1)CC2 (centres undefined)	Plasmodium berghei	class 0
NC(=O)c1ccc(CNC(=O)Nc2cn[nH]c2)cc1	Plasmodium berghei	class 1
COc1cccc(-c2c[nH]c(C)n2)c1F	Plasmodium berghei	class 0

---

# Tested on: Plasmodium berghei
# PROTOCOL DETAILS: Screen against P. berghei liver stage (PbLuc), transformed with Luciferase, at 10uM
# Assay type: functional, HepG2
# EXPERIMENTAL SETUP: tested at 10 uM
The campaign covered roughly 69,000 compounds. About 8,600 (12%) showed an effect of 50% or more. What follows is part of a selection rich in strong results, with near analogues and random picks from the rest.

COMPOUND	TEST SYSTEM	INHIBITION (%)
Cc1nc2c(cc1C(=O)Nc1ccccc1Cl)c(=O)n(C)c(=O)n2C	Plasmodium berghei	18.6
CCc1noc(-c2cccc(OCC(=O)NC(C)C)c2)n1	Plasmodium berghei	48.7
CN(Cc1ccccc1CNC(=O)C1CNC(=O)N1)C1CCCCC1 (configuration not stated)	Plasmodium berghei	57.7
Cc1nc(CO[C@@H]2CN(Cc3cccs3)[C@@H]3COC[C@@H]32)cs1	Plasmodium berghei	-33.3
Cc1ccccc1-c1csc2c(=O)[nH]c(N3CCCC(C(=O)O)C3)nc12 (configuration not stated)	Plasmodium berghei	52.5
Cc1nc(N2CCCC2)nc2c1CCN(Cc1ccco1)CC2	Plasmodium berghei	15.1
O=C1CCCC2=Nc3nonc3NC(c3cc(Cl)ccc3F)C12 (configuration not stated)	Plasmodium berghei	76.8
NC(=O)C1CCN(C(=O)CCSCc2ccccc2)CC1	Plasmodium berghei	17.2875
N#Cc1ccccc1N1CCCN(C(=O)CCc2ccco2)CC1	Plasmodium berghei	-2.53
CNC(=O)c1cc2c(nc1N(C)C)CCN(c1ncc(F)cn1)CC2	Plasmodium berghei	50.3
CNC(=O)c1cc2c(nc1N(C)C)CCN(S(=O)(=O)C1CC1)CC2	Plasmodium berghei	9.3
O=C(NCC1CCCO1)c1nc2c(s1)CCCN2c1ncccn1 (configuration not stated)	Plasmodium berghei	-4.32
CNC(=O)c1cc2c(nc1NCC(C)C)CCN(S(=O)(=O)N(C)C)CC2	Plasmodium berghei	-23.4
Cc1nn(CC(C)C)c(N(C)C)c1CNCCS(C)(=O)=O	Plasmodium berghei	26.4
Cc1cc(Br)oc1C(=O)N1CCN(CC(N)=O)CC1	Plasmodium berghei	20.9
Cc1cn([C@@H]2CC3(CCNCC3)OC[C@@]2(C)O)c(=O)[nH]c1=O	Plasmodium berghei	37.1
CCn1cc2c(n1)CN(Cc1ccncc1)CC2COCC1CC1 (configuration not stated)	Plasmodium berghei	40.9
O=C(c1n[nH]c(=O)c2ccccc12)N1CCCC1Cn1cccn1 (configuration not stated)	Plasmodium berghei	45.9
CNC(=O)c1cc2c(nc1N(C)C)CCN(C)CC2	Plasmodium berghei	13.3
CNC(=O)c1cc2c(nc1N(C)C)CCN(S(=O)(=O)N(C)C)CC2	Plasmodium berghei	44.8
CCS(=O)(=O)N1CCc2cc(C(=O)NC)c(N(C)C)nc2CC1	Plasmodium berghei	19.8
Cc1ccc(-c2csc3c(=O)[nH]c(N4CCCC(C(=O)O)C4)nc23)cc1 (configuration not stated)	Plasmodium berghei	32.8
Cc1nc(C)c(C(C)NCc2c(C(C)C)nn(C)c2N(C)C)s1 (configuration not stated)	Plasmodium berghei	1.2
O=C1CCCC2=Nc3nonc3NC(c3ccccc3F)C12 (configuration not stated)	Plasmodium berghei	12.3
CC(C)c1cc(C(=O)N2CC[C@@H](c3ccc4c(c3)OCO4)[C@H](O)C2)[nH]n1	Plasmodium berghei	15.6
N#Cc1ccc(CN(CCF)Cc2cccc(F)c2)cc1	Plasmodium berghei	37.9
CCOCC1CN(Cc2ccc(F)cc2)Cc2nn(CC3CC3)cc21 (configuration not stated)	Plasmodium berghei	5.96
CNC(=O)CCCNCc1c(C)nn(CC(C)C)c1N(C)C	Plasmodium berghei	53.3
O=C1CCCC2=Nc3nonc3NC(c3ccc(Cl)cc3Cl)C12 (configuration not stated)	Plasmodium berghei	57.8
COCC1CC2(CCN(c3ccc(C)nn3)CC2)CN1C(C)C (configuration not stated)	Plasmodium berghei	16.8
CNC(=O)CCCNCc1c(C)nn(C)c1N(C)C	Plasmodium berghei	14.7
O=C1CCCC2=Nc3nonc3NC(c3ccccc3Cl)C12 (configuration not stated)	Plasmodium berghei	12.3
Fc1cc(Oc2ccc(C(F)(F)F)cn2)cc(F)c1CN1CCCC1	Plasmodium berghei	78.9
Cc1nn(CC(C)C)c(N(C)C)c1CNCCCNS(C)(=O)=O	Plasmodium berghei	42.1
CCc1cc(C(=O)N2CC[C@@H](c3ccc4c(c3)OCO4)[C@H](O)C2)[nH]n1	Plasmodium berghei	-5.22
Cc1nc(C)c(C(C)NCc2c(C)nn(C)c2N(C)C)s1 (configuration not stated)	Plasmodium berghei	-15.1
COCC1CC2(CCN(Cc3ccccn3)CC2)CN1C(C)C (configuration not stated)	Plasmodium berghei	-2.27
CNC(=O)c1cc2c(nc1N(C)C)CCN(S(=O)(=O)CC(C)C)CC2	Plasmodium berghei	-22.8
CCn1cc2c(n1)CN(Cc1ccc(F)cc1)CC2COCC1CC1 (configuration not stated)	Plasmodium berghei	70.7
COCC1CC2(CCN(c3ccccn3)CC2)CN1C(C)C (configuration not stated)	Plasmodium berghei	64.7
COCC1CC2(CCN(S(=O)(=O)C3CC3)CC2)CN1c1ncccn1 (configuration not stated)	Plasmodium berghei	19.5
COCC1CC2(CCN(c3cccc(C)n3)CC2)CN1C(C)C (configuration not stated)	Plasmodium berghei	29.4
CCOC(=O)CCC(=O)N1CCC(Oc2ccc(C(F)(F)F)cn2)CC1	Plasmodium berghei	32.4
CCn1cc(CN2CCCN(C(=O)c3ccoc3C)CC2)cn1	Plasmodium berghei	-19.9
CCc1nsc(N2CCCN(CC(=O)N(C)C3CC3)CC2)n1	Plasmodium berghei	39.3
CNC(=O)c1cc2c(nc1N(C)C)CCN(c1ncc(C)cn1)CC2	Plasmodium berghei	57.5
Cc1noc(-c2ccc(N3CCN(Cc4nccn4C)CC3)nc2)n1	Plasmodium berghei	9
